# Test system: HCT-116
# PROTOCOL SUMMARY: NCI tumour cell line growth inhibition, 48 h
Activity calls are given as the source filed them. Cut-off read from the data, not from the text of the source: active = GI50 up to about 1.1 µM and inactive = higher.
In this exercise, the only acceptable responses are yes (1) = active, no (0) = inactive

Answered examples (8):
O=[N+]([O-])c1cccc2nc3ccccc3c(NCCC[N+]3([O-])CCOCC3)c12; yes (1)
CCCCCc1cc2cc3c(c(O)c2c(=O)[nH]1)C1(CC3)C(=O)c2c(O)c3c(c(O)c2C1=O)C(=O)C(OC)=CC3=O (stereo not given); yes (1)
Cn1ncc(=S)[nH]c1=S; no (0)
Clc1ccc(CCn2cncn2)c(Cl)c1; no (0)
CC(=O)N(C(=O)CC(=O)N1N=C(C)C(/N=N/c2cccc([N+](=O)[O-])c2)C1=O)c1ccc(Cl)cc1 (stereo not given); no (0)
COc1ccc(N2N=NN(C(C)C)/C2=C(/Cl)c2nnnn2-c2ccc(OC)cc2)cc1; no (0)
COC(=O)N1CC(=O)C(C(=O)NC23CC4CC(CC(C4)C2)C3)C1 (stereo not given); no (0)
Cc1ccc(NC(=S)C#N)c(C)c1; no (0)

// outcome(item) with item = O=C1O[C@]2(c3ccccc3)C(c3ccccc3)=C[C@]2(C(=O)c2ccccc2)C1=O
no (0)

COC(=O)[C@H]1[C@H](C(=O)OC)[C@@H](C)c2c(ccc3c2[nH]c2ccccc23)[C@@H]1C ?
no (0)
